Each recorded value in this set is attributed to patent US20240408169A1.

# MEASUREMENT TARGET: CyclinA2/CDK2 (Homo sapiens)
# Construct: purchased CRELUX Protein Services
# EXPERIMENT SUMMARY: Fluorescence Polarization (FP) competitive binding assay, Cyclin A2/Cdk2
# APPLIED CONDITIONS: 8 nM Cyclin A2/Cdk2, 2 nM FAM probe; average of 2-3 independent experiments; read-out: Cyclin A FP IC50
*1 amine or outer side, *2 acyl side, *3 side chain or, on linkers, in order; H or OH if unused. Where a SMILES comes first, the peptide text is derived from it. Bridges are numbered along the chain shown (N, C = ends). [ ]: non-standard residue; d: D form. The star is where a group is joined. X127 = CN([C@@H](Cc1cc(F)ccc1-c1cnn(S(=O)(=O)C2CC2)c1)C(=O)[*:2])[*:1]; X119 = CC(=O)N1C2C=C(c3ccc(F)cc3C[C@@H](C(=O)[*:2])N(C)[*:1])CC1COC2; NMehhhLys(Me) = CN([C@@H](CCCCCCCN(C)[*:3])C(=O)[*:2])[*:1]; Oxane2carbonyl(2R-CF3) = O=C([C@@]1(C(F)(F)F)CCCCO1)*; cBuCO(3,3-F2-1-CF3) = O=C(C1(C(F)(F)F)CC(F)(F)C1)*; Pro(trans-4-F) = O=C(O)[C@@H]1C[C@@H](F)CN1; Gly(cPr) = N[C@H](C(=O)O)C1CC1
This listing pairs compounds with measured IC50.
// note: answer is a bare numeric in nM

CC(=O)N1C2C=C(c3ccc(F)cc3C[C@H]3C(=O)N(C)CCCCCCC[C@H](N(C)C(=O)[C@@H](NC(=O)[C@@H]4C[C@@H](F)CN4C(=O)C4(C(F)(F)F)CC(F)(F)C4)C4CC4)C(=O)N[C@@H](CC(C)C)C(=O)N3C)CC1COC2 (stereo partly drawn) [Example 124] ({cBuCO(3,3-F2-1-CF3)}-[Pro(trans-4-F)][Gly(cPr)][NMehhhLys(Me)]L[X119]; lactam 3-C); 20
CC(C)C[C@@H]1NC(=O)[C@@H](N(C)C(=O)[C@@H](NC(=O)[C@@H]2C[C@@H](F)CN2C(=O)[C@@]2(C(F)(F)F)CCCCO2)C2CC2)CCCCCCCN(C)C(=O)[C@H](Cc2cc(F)ccc2-c2cnn(S(=O)(=O)C3CC3)c2)N(C)C1=O [Example 282] ({Oxane2carbonyl(2R-CF3)}-[Pro(trans-4-F)][Gly(cPr)][NMehhhLys(Me)]L[X127]; lactam 3-C); 30

Consider the additional compound presented here.
The measured IC50 that COCCn1cc(-c2ccc(Cl)cc2C[C@H]2C(=O)N(C)CCCCC=CC[C@H](N(C)C(=O)[C@@H](NC(=O)[C@@H]3C[C@@H](F)CN3C(=O)C3(C(F)(F)F)CC(F)(F)C3)C3CC3)C(=O)N[C@@H](CC(C)C)C(=O)N2C)cn1 showed for CyclinA2/CDK2 (Homo sapiens) is 30

====

# Tested on: OVCAR3 cells
# EXPERIMENT SUMMARY: MTT proliferation assay, OVCAR3;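 also: compound given as an 8- or 10-point series, one day after plating, with exposure covering roughly 3-4 cell doublings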
# Format: cell-based
# APPLIED CONDITIONS: 5 days compound exposure, 1:3 serial dilution starting at 10 μM
*1 amine or outer side, *2 acyl side, *3 side chain or, on linkers, in order; H or OH if unused. Where a SMILES comes first, the peptide text is derived from it. Bridges are numbered along the chain shown (N, C = ends). [ ]: non-standard residue; d: D form. The star is where a group is joined. X7 = CC(C)C(=O)N1[C@H]2CC[C@@H]1C=C(c1ccc(F)cc1C[C@@H](C(=O)[*:2])N(C)[*:1])C2; X57 = CC(C)C(=O)N1C2C=C(c3ccc(Cl)cc3C[C@@H](C(=O)[*:2])N(C)[*:1])CC1CC2; NMe(hhhLys) = CN([C@@H](CCCCCCCN[*:3])C(=O)[*:2])[*:1]; cBuCO(3,3-F2-1-CF3) = O=C(C1(C(F)(F)F)CC(F)(F)C1)*; Pro(trans-4-F) = O=C(O)[C@@H]1C[C@@H](F)CN1; Gly(cPr) = N[C@H](C(=O)O)C1CC1
PROPERTY LABEL: GI50 (nM)
// note: answer is a bare numeric in nM

CC(C)C[C@@H]1NC(=O)[C@@H](N(C)C(=O)[C@@H](NC(=O)[C@@H]2C[C@@H](F)CN2C(=O)C2(C(F)(F)F)CC(F)(F)C2)C2CC2)CCCCCCCNC(=O)[C@H](Cc2cc(F)ccc2C2=C[C@H]3CC[C@@H](C2)N3C(=O)C(C)C)N(C)C1=O [Example 316] ({cBuCO(3,3-F2-1-CF3)}-[Pro(trans-4-F)][Gly(cPr)][NMe(hhhLys)]L[X7]; lactam 3-C); 10

Consider the additional compound presented here.
Quick note, GI50 for CC(C)C[C@@H]1NC(=O)[C@@H](N(C)C(=O)[C@@H](NC(=O)[C@@H]2C[C@@H](F)CN2C(=O)C2(C(F)(F)F)CC(F)(F)C2)C2CC2)CCCCCCCNC(=O)[C@H](Cc2cc(Cl)ccc2C2=CC3CCC(C2)N3C(=O)C(C)C)N(C)C1=O (stereo partly drawn) [Example 193] ({cBuCO(3,3-F2-1-CF3)}-[Pro(trans-4-F)][Gly(cPr)][NMe(hhhLys)]L[X57]; lactam 3-C) landed at 20

====

# MEASUREMENT TARGET: CyclinA2/CDK2 (Homo sapiens)
# Construct: purchased CRELUX Protein Services
# EXPERIMENT SUMMARY: Fluorescence Polarization (FP) competitive binding assay, Cyclin A2/Cdk2;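 also: plates equilibrated two hours at room temperature before polarization reading, IC50 fitted from eight-concentration compound titration curves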
# APPLIED CONDITIONS: 8 nM Cyclin A2/Cdk2, 2 nM FAM probe; average of 2-3 independent experiments; read-out: Cyclin A FP IC50
*1 amine or outer side, *2 acyl side, *3 side chain or, on linkers, in order; H or OH if unused. Where a SMILES comes first, the peptide text is derived from it. Bridges are numbered along the chain shown (N, C = ends). [ ]: non-standard residue; d: D form. The star is where a group is joined. NMePhe(2-(4-MorPh),5-Cl) = CN[C@@H](Cc1cc(Cl)ccc1-c1ccc(N2CCOCC2)cc1)C(=O)O; X26 = CN([C@@H](Cc1cc(F)ccc1-c1cnn(C2CC2)c1)C(=O)[*:2])[*:1]; NMehhhLys(Me) = CN([C@@H](CCCCCCCN(C)[*:3])C(=O)[*:2])[*:1]; X125 = CN([C@@H](Cc1cc(Cl)ccc1-c1cncc(F)c1)C(=O)[*:2])[*:1]; cBuCO(3,3-F2-1-CF3) = O=C(C1(C(F)(F)F)CC(F)(F)C1)*; Pro(trans-4-F) = O=C(O)[C@@H]1C[C@@H](F)CN1; X27 = O=C([C@]1(C(F)(F)F)CCCCO1)*; Nva(5-OH) = N[C@@H](CCCO)C(=O)O; Gly(cPr) = N[C@H](C(=O)O)C1CC1
This listing pairs compounds with measured log10 IC50.
Units before log transform: nM; reported quantity: IC50; transform: log10.

CC(C)C[C@@H]1NC(=O)[C@@H](N(C)C(=O)[C@@H](NC(=O)[C@@H]2C[C@@H](F)CN2C(=O)C2(C(F)(F)F)CC(F)(F)C2)C2CC2)CC=CCCCCN(C)C(=O)[C@H](Cc2cc(Cl)ccc2-c2cncnc2)N(C)C1=O; 2.38

Quick note, log10 IC50 for CC(C)C[C@@H]1NC(=O)[C@@H](N(C)C(=O)[C@@H](NC(=O)[C@@H]2C[C@@H](F)CN2C(=O)C2(C(F)(F)F)CC(F)(F)C2)C2CC2)CC=CCCCCNC(=O)[C@H](Cc2cc(Cl)ccc2C2=CC[C@H](O)CC2)N(C)C1=O landed at 1.78

Quick note, log10 IC50 for CC(C)C[C@@H]1NC(=O)[C@@H](N(C)C(=O)[C@@H](NC(=O)[C@@H]2C[C@@H](F)CN2C(=O)C2(C(F)(F)F)CC(F)(F)C2)C2CC2)CCCCCCCN(C)C(=O)[C@H](Cc2cc(Cl)ccc2-c2cncc(F)c2)N(C)C1=O [Example 198] ({cBuCO(3,3-F2-1-CF3)}-[Pro(trans-4-F)][Gly(cPr)][NMehhhLys(Me)]L[X125]; lactam 3-C) landed at 1.70

Quick note, log10 IC50 for CC(C)C[C@@H]1NC(=O)[C@@H](N(C)C(=O)[C@@H](NC(=O)[C@@H]2C[C@@H](F)CN2C(=O)C2(C(F)(F)F)CC(F)(F)C2)C2CC2)CC=CCCCCNC(=O)[C@H](Cc2cc(Cl)ccc2-c2cnn(C)c2)N(C)C1=O landed at 1.78

Quick note, log10 IC50 for CC(=O)N1[C@H]2CC[C@@H]1C=C(c1ccc(Cl)cc1C[C@H]1C(=O)N(C)CCCCCCC[C@H](N(C)C(=O)[C@@H](NC(=O)[C@@H]3C[C@@H](F)CN3C(=O)C3(C(F)(F)F)CC(F)(F)C3)C3CC3)C(=O)N[C@@H](CC(C)C)C(=O)N1C)C2 (single isomer, unassigned) [Example 57-P2] landed at 1.30

Quick note, log10 IC50 for CC(C)C[C@@H]1NC(=O)[C@@H](N(C)C(=O)[C@@H](NC(=O)[C@@H]2C[C@@H](F)CN2C(=O)[C@]2(C(F)(F)F)CCCCO2)C2CC2)CCCCCCCN(C)C(=O)[C@H](Cc2cc(F)ccc2-c2cnn(C3CC3)c2)N(C)C1=O [Example 146] (X27-[Pro(trans-4-F)][Gly(cPr)][NMehhhLys(Me)]L[X26]; lactam 3-C) landed at 1.48

Quick note, log10 IC50 for CC(C)C[C@@H]1NC(=O)[C@@H](N(C)C(=O)[C@H](CCCO)NC(=O)[C@@H]2C[C@@H](F)CN2C(=O)C2(C(F)(F)F)CC(F)(F)C2)CCCCCCCN(C)C(=O)[C@H](Cc2cc(Cl)ccc2-c2ccc(N3CCOCC3)cc2)N(C)C1=O [Example 421] ({cBuCO(3,3-F2-1-CF3)}-[Pro(trans-4-F)][Nva(5-OH)][NMehhhLys(Me)]L[NMePhe(2-(4-MorPh),5-Cl)]; lactam 3-C) landed at 1.30
